// provenance: PubChem BioAssay (NCI)

system: TK-10 renal; assay: NCI tumour cell line growth inhibition, 48 h
Measured Quantity: TGI

These solved cases illustrate the format of a correct answer.
| Molecule | Measured Quantity | Result Value |
| --- | --- | --- |
| COc1cc(C(=O)CC2(O)C(=O)Nc3c(Cl)cc(Cl)cc32)ccc1O (stereo unspecified) | TGI | > 100 µM |
| CS(=O)(=O)Nc1cc(-c2ccc3ncnc(Nc4ccc5c(cnn5Cc5ccccc5F)c4)c3c2)cnc1Cl | TGI | 5.44 µM |
| Clc1nc(Cl)c(Cc2ccccc2)c(Cl)n1 | TGI | 32.2 µM |
| Clc1ccc(-c2nc3ccc(C45CC6CC(CC(C6)C4)C5)cc3[nH]2)cc1 | TGI | 98.9 µM |
| CN(C)CCNC(=O)c1cc2c3ccccc3[nH]c2c2ncccc12 | TGI | 54.7 µM |

Next:
// query TGI value for entry NS(=O)(=O)c1nnc(/N=C(/CCC(=O)O)C(=O)O)s1
> 100 µM

* * *

test system: COLO 205 colon; assay: NCI tumour cell line growth inhibition, 48 h
Measured Quantity: GI50

| Compound | GI50 |
| --- | --- |
| COCCNC(=O)c1ccc(-c2nc3ccc4[nH]ncc4c3c3c2CCCC3)cc1 | 2830 nM |
| Clc1ccc2c(c1)-c1ccccc1C1=NCCN12 | 1610 nM |
| C[CH2][Sn]([Cl])([Cl])[CH2]C | 19100 nM |
| COc1ccc2nc(C)cc(Nc3ccccc3O)c2c1 | 18300 nM |
| CN1CCn2c(c(Sc3ccc(C(=O)NO)cc3)c3ccccc32)C1=O | 1690 nM |
| N#CC1=C(N)Oc2c(sc3c(F)cccc23)C1c1ccc(F)cc1 (stereo not given) | 2830 nM |

What value of measured GI50 is listed for COC(=O)[C@@]1(O)C[C@H]2O[C@]1(C)n1c3ccccc3c3c4c(c5c6ccccc6n2c5c31)C(=O)NC4 ?
231 nM

Requested read-out: GI50. Entry: COc1cccc2c(=O)c3c(sc12)c(NCCN(C)C)nc1ccccc13
1200 nM

I have this compound here, OCCNCCNc1c2ccccc2nc2oc3ccccc3c12 , and I need its recorded GI50.
3510 nM

GI50 lookup needed for C=C1C(=O)O[C@H]2[C@H]1CC/C(CNS(=O)(=O)c1cccc3ccccc13)=C\CC[C@@]1(C)O[C@@H]21 , thanks.
1730 nM

* * *

Reported values of GI50 for individual entries
tested on: EKVX NSCLC; experiment: NCI tumour cell line growth inhibition, 48 h

Please review the entries below; each comes with its answer.
| Compound | Subject Of Test | Measured Quantity | Result Value |
| --- | --- | --- | --- |
| CN(C)CCNC(=O)c1cc2c3ccccc3[nH]c2c2ncccc12 | EKVX NSCLC | GI50 | 7.81 µM |
| COc1ccc2c(c1)OC(N)=C(C#N)C2c1ccc(F)cc1 (configuration not stated) | EKVX NSCLC | GI50 | 5.09 µM |
| CCCCCCCCCCCC[n+]1ccc(C(N)=O)cc1 | EKVX NSCLC | GI50 | 2.55 µM |
| C=CC(=O)Nc1cccc(C)c1Nc1ncc2cc(-c3c(Cl)c(OC)cc(OC)c3Cl)ccc2n1 | EKVX NSCLC | GI50 | 6.85 µM |
| O=Cc1ccc(O)c2ncccc12 | EKVX NSCLC | GI50 | 3.01 µM |

Request: GI50, test system EKVX NSCLC, entry COc1ccc(/C=C/C(=O)c2cc3c(N)c(C(=O)Nc4ccccc4)sc3nc2C)cc1
0.752 µM

Lab note: need GI50 for CS(=O)(=O)Nc1cc(-c2ccc3ncnc(Nc4ccc5c(cnn5Cc5ccccc5F)c4)c3c2)cnc1Cl on EKVX NSCLC, anyone have it?
1.69 µM
